# target.system: human μ opiate receptor (Homo sapiens, UniProt P35372)
# Construct: purchased PerkinElmer Life Sciences, Zaventem, Belgium RB-HOM; host or cells: CHO-K1 cells (membrane preparation)
# Sequence (P35372 whole entry): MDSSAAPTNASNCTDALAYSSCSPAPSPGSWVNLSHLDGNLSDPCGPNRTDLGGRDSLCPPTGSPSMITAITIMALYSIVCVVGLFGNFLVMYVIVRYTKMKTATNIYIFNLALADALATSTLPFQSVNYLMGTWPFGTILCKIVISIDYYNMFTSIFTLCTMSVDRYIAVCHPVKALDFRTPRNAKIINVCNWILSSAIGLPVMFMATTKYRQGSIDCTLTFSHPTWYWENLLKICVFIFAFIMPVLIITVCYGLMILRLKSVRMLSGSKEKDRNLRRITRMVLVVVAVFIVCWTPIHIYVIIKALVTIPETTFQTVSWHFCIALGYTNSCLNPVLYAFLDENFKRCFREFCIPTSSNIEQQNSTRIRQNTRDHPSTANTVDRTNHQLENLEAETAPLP
# measurement.protocol: Affinity for the human μ opiate receptor ([3H]-naloxone displacement, CHO-K1 receptor membrane preparation, SPA)
# Assay type: binding
# run.conditions: test concentration of 1 μM
We use 60% as the dividing line for μ (binding on the μ opioid receptor, % inhibition): on or above the line is true, below is false.

Enquiry: Answer whether μ (binding on the μ opioid receptor, % inhibition) of COc1cc(C)c(S(=O)(=O)N2CCC(OCC(=O)NCC3CCC(C(c4ccc(Cl)cc4)N(C)C)CC3)C2)c(C)c1 (centres unmarked) is greater than or equal to 60%.
Return: false

Enquiry: Answer whether μ (binding on the μ opioid receptor, % inhibition) of Cc1ccc(S(=O)(=O)N(C)CCOCC(=O)NCC2CCC(C(c3cccc(F)c3)N(C)C)CC2)cc1 (centres unmarked) is greater than or equal to 60%.
Return: true

Enquiry: Answer whether μ (binding on the μ opioid receptor, % inhibition) of CN(C)C(c1ccccc1)C1CCC(NC(=O)COCCN(C)S(=O)(=O)c2ccc(F)cc2)CC1 (centres unmarked) is greater than or equal to 60%.
Return: false

Enquiry: Answer whether μ (binding on the μ opioid receptor, % inhibition) of COc1cc(C)c(S(=O)(=O)N2CCN(CCOCC(=O)NC3CCC(C(c4ccc(F)cc4)N(C)C)CC3)CC2)c(C)c1C (centres unmarked) is greater than or equal to 60%.
Return: true

Enquiry: Answer whether μ (binding on the μ opioid receptor, % inhibition) of Cc1cc(C)c(S(=O)(=O)N(C)CCOCC(=O)NC2CCC(C(c3ccccc3)N(C)C)CC2)c(C)c1 (centres unmarked) is greater than or equal to 60%.
Return: true

Enquiry: Answer whether μ (binding on the μ opioid receptor, % inhibition) of COc1cc(C)c(S(=O)(=O)N(C)CCOCC(=O)NCC2CCC(C(c3cccc(F)c3)N(C)C)CC2)c(C)c1 (centres unmarked) is greater than or equal to 60%.
Return: true

Enquiry: Answer whether μ (binding on the μ opioid receptor, % inhibition) of COc1ccc(S(=O)(=O)N(C)CCOCC(=O)NCC2CCC(C(c3ccc(F)cc3)N(C)C)CC2)cc1OC (centres unmarked) is greater than or equal to 60%.
Return: false

Enquiry: Answer whether μ (binding on the μ opioid receptor, % inhibition) of CN(C)C(c1ccc(F)cc1)C1CCC(CNC(=O)COCCN(C)S(=O)(=O)c2cccc(C(F)(F)F)c2)CC1 (centres unmarked) is greater than or equal to 60%.
Return: false

Enquiry: Answer whether μ (binding on the μ opioid receptor, % inhibition) of COc1ccc(S(=O)(=O)N(C)CCOCC(=O)NCCC2CCC(C(c3cccc(F)c3)N(C)C)CC2)cc1 (centres unmarked) is greater than or equal to 60%.
Return: true

Enquiry: Answer whether μ (binding on the μ opioid receptor, % inhibition) of CN(C)C(c1ccc(F)cc1)C1CCC(CCNC(=O)COC2CCCCC2N(C)S(=O)(=O)c2ccc(Cl)c(Cl)c2)CC1 (centres unmarked) is greater than or equal to 60%.
Return: true

Enquiry: Answer whether μ (binding on the μ opioid receptor, % inhibition) of CN(C)C(c1ccccc1)C1CCC(CNC(=O)COC2CCN(S(=O)(=O)c3ccccc3)CC2)CC1 (centres unmarked) is greater than or equal to 60%.
Return: true

Enquiry: Answer whether μ (binding on the μ opioid receptor, % inhibition) of CN(C)C(c1ccc(F)cc1)C1CCC(CNC(=O)COC2CCN(S(=O)(=O)c3ccc(Cl)cc3Cl)C2)CC1 (centres unmarked) is greater than or equal to 60%.
Return: false

Enquiry: Answer whether μ (binding on the μ opioid receptor, % inhibition) of COc1cc(C)c(S(=O)(=O)N2CCCC(OCC(=O)NC3CCC(C(c4cccc(F)c4)N(C)C)CC3)C2)c(C)c1C (centres unmarked) is greater than or equal to 60%.
Return: true

Enquiry: Answer whether μ (binding on the μ opioid receptor, % inhibition) of COc1ccc(S(=O)(=O)N(C)CCOCC(=O)NC2CCC(C(c3ccc(F)cc3)N(C)C)CC2)cc1OC (centres unmarked) is greater than or equal to 60%.
Return: false

---

# target.system: human bradykinin 1 receptor (B1R) (Homo sapiens)
# Construct: expressed in transfected cells; host or cells: CHO K1 cells
# Sequence (P46663 1-353): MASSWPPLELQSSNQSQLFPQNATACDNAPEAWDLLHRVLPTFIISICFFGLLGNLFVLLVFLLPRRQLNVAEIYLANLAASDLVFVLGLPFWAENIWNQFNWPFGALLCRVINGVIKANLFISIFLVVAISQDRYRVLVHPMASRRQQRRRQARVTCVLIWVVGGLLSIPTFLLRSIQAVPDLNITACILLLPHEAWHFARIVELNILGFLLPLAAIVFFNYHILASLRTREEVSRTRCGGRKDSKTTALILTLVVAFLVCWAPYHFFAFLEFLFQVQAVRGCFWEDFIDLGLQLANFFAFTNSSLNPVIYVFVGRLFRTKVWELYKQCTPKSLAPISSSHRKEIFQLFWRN
# measurement.protocol: Functional investigation on the human bradykinin 1 receptor (B1R), Ca2+ FLIPR assay in CHO K1 hB1R cells
# Type: cell-based
# run.conditions: B1R antagonism human; test substance 10 μM; Ca2+ FLIPR, CHO K1 hB1R cells
# From the text: Functional Investigation on the Human Bradykinin 1 Receptor (B1R) The agonistic or antagonistic action of substances can be determined on the bradykinin 1 receptor (B1R) of the human species and rats with the following assay. In accordance with this assay, the Ca^2+ inflow through the channel is quantified with the aid of a Ca^2=-sensitive dyestuff (type Fluo-4, Molecular Probes Europe BV, Leiden, Holland) in a fluorescent imaging plate reader (FLIPR, Molecular Devices, Sunnyvale, USA). […]
Provide the reported B1R Ant. h [10 μM] % Inhibition of each item.
Report the figure in % without appending any unit label.

Enquiry: Look at this compound and give its reported B1R Ant. h [10 μM] % Inhibition. COc1cc(C)c(S(=O)(=O)N(CCOCC(=O)NCCC2CCC(C(c3ccc(Cl)cc3)N(C)C)CC2)Cc2ccccc2)c(C)c1C (stereo not shown) [Example 576]
Return: −6

Enquiry: Look at this compound and give its reported B1R Ant. h [10 μM] % Inhibition. CCN(CCOCC(=O)NCC1CCC(C(CCc2ccccc2)N(C)C)CC1)S(=O)(=O)c1c(C)cc(OC)c(C)c1C (stereo not shown) [Example 536]
Return: 105

Enquiry: Look at this compound and give its reported B1R Ant. h [10 μM] % Inhibition. CN(C)C(c1ccc(F)cc1)C1CCC(NC(=O)COC2CCN(S(=O)(=O)c3ccc(Cl)cc3Cl)C2)CC1 (stereo not shown) [Example 290]
Return: 37

Enquiry: Look at this compound and give its reported B1R Ant. h [10 μM] % Inhibition. CCN(CCOCC(=O)NCC1CCC(C(c2ccc(Cl)cc2)N(C)C)CC1)S(=O)(=O)c1c(C)cc(OC)c(C)c1C (stereo not shown) [Example 310]
Return: 89

Enquiry: Look at this compound and give its reported B1R Ant. h [10 μM] % Inhibition. CN(C)C(CCc1ccccc1)C1CCC(CNC(=O)COC2CCN(S(=O)(=O)c3ccccc3)C2)CC1 (stereo not shown) [Example 573]
Return: −4

Enquiry: Look at this compound and give its reported B1R Ant. h [10 μM] % Inhibition. COc1ccc(S(=O)(=O)N2CCCCC2COCC(=O)NCC2CCC(C(c3ccc(Cl)cc3)N(C)C)CC2)cc1 (stereo not shown) [Example 321]
Return: 94

Enquiry: Look at this compound and give its reported B1R Ant. h [10 μM] % Inhibition. COc1cc(C)c(S(=O)(=O)N(CCOCC(=O)NCC2CCC(C(c3cccc(F)c3)N(C)C)CC2)Cc2ccccc2)c(C)c1C (stereo not shown) [Example 414]
Return: 28

---

# target.system: human μ opiate receptor (Homo sapiens)
# Construct: purchased PerkinElmer Life Sciences, Zaventem, Belgium RB-HOM; host or cells: CHO-K1 cells (membrane preparation)
# measurement.protocol: Affinity for the human μ opiate receptor ([3H]-naloxone displacement, CHO-K1 receptor membrane preparation, SPA)
# Format: binding
# run.conditions: test concentration of 1 μM
# Description: Binding data of the compounds on the μ opioid receptor and data on the inhibition of reuptake of serotonin (5-HT) are given in Table 1. The data for the μ receptor were measured at a test concentration of 1 μM, and those for the serotonin reuptake at 10 μM. The values are stated in % inhibition. […] The receptor affinity for the human p opiate receptor is determined in a homogeneous set-up in microtitre plates. […]
Provide the reported μ (binding on the μ opioid receptor, % inhibition) of each item.
The reply should read as a number followed by its unit.

Enquiry: For human μ opiate receptor (Homo sapiens), provide μ (binding on the μ opioid receptor, % inhibition) of Cc1ccc(S(=O)(=O)N(C)CCOCC(=O)NCC2CCC(C(CCc3ccccc3)N(C)C)CC2)cc1 (stereo not shown) please.
Return: 46%

Enquiry: For human μ opiate receptor (Homo sapiens), provide μ (binding on the μ opioid receptor, % inhibition) of CN(C)C(c1ccc(Cl)cc1)C1CCC(CNC(=O)COCCN(C)S(=O)(=O)c2ccc(OC(F)(F)F)cc2)CC1 (stereo not shown) please.
Return: 60%

Enquiry: For human μ opiate receptor (Homo sapiens), provide μ (binding on the μ opioid receptor, % inhibition) of COc1cc(C)c(S(=O)(=O)N2CCN(CCOCC(=O)NCCC3CCC(C(c4ccc(F)cc4)N(C)C)CC3)CC2)c(C)c1C (stereo not shown) please.
Return: 53%

Enquiry: For human μ opiate receptor (Homo sapiens), provide μ (binding on the μ opioid receptor, % inhibition) of COc1ccc(S(=O)(=O)N2CCCCC2COCC(=O)NCCC2CCC(C(c3ccc(F)cc3)N(C)C)CC2)cc1 (stereo not shown) please.
Return: 66%

Enquiry: For human μ opiate receptor (Homo sapiens), provide μ (binding on the μ opioid receptor, % inhibition) of Cc1ccc(S(=O)(=O)N(C)CCOCC(=O)NCC2CCC(C(c3ccc(F)cc3)N(C)C)CC2)cc1 (stereo not shown) please.
Return: 54%

Enquiry: For human μ opiate receptor (Homo sapiens), provide μ (binding on the μ opioid receptor, % inhibition) of COc1ccc(S(=O)(=O)N2CCCC2COCC(=O)NCC2CCC(C(c3ccc(F)cc3)N(C)C)CC2)cc1 (stereo not shown) please.
Return: 39%

Enquiry: For human μ opiate receptor (Homo sapiens), provide μ (binding on the μ opioid receptor, % inhibition) of CN(C)C(c1cccc(F)c1)C1CCC(NC(=O)COCCN(C)S(=O)(=O)c2ccc(F)cc2)CC1 (stereo not shown) please.
Return: 76%

Enquiry: For human μ opiate receptor (Homo sapiens), provide μ (binding on the μ opioid receptor, % inhibition) of CN(C)C(c1ccc(F)cc1)C1CCC(CNC(=O)COC2CCN(S(=O)(=O)c3ccc(F)cc3)C2)CC1 (stereo not shown) please.
Return: 35%

Enquiry: For human μ opiate receptor (Homo sapiens), provide μ (binding on the μ opioid receptor, % inhibition) of CN(C)C(c1ccc(F)cc1)C1CCC(CNC(=O)COCC2CCCN(S(=O)(=O)c3ccccc3)C2)CC1 (stereo not shown) please.
Return: 39%

Enquiry: For human μ opiate receptor (Homo sapiens), provide μ (binding on the μ opioid receptor, % inhibition) of COc1cc(C)c(S(=O)(=O)N2CCCC(OCC(=O)NCCC3CCC(C(c4ccc(F)cc4)N(C)C)CC3)C2)c(C)c1C (stereo not shown) please.
Return: 53%

Enquiry: For human μ opiate receptor (Homo sapiens), provide μ (binding on the μ opioid receptor, % inhibition) of COc1ccc(S(=O)(=O)N2CCCC2COCC(=O)NCCC2CCC(C(c3ccc(F)cc3)N(C)C)CC2)cc1 (stereo not shown) please.
Return: 54%

Enquiry: For human μ opiate receptor (Homo sapiens), provide μ (binding on the μ opioid receptor, % inhibition) of COc1cc(C)c(S(=O)(=O)N2CCC(OCC(=O)NCCC3CCC(C(c4cccc(F)c4)N(C)C)CC3)C2)c(C)c1 (stereo not shown) please.
Return: 73%

Enquiry: For human μ opiate receptor (Homo sapiens), provide μ (binding on the μ opioid receptor, % inhibition) of COc1cc(C)c(S(=O)(=O)N(C)CCOCC(=O)NC2CCC(C(c3ccc(F)cc3)N(C)C)CC2)c(C)c1 (stereo not shown) please.
Return: 43%
